Test system: SN12C renal
Assay: NCI-60 one-dose screen, 48 h
Details: 10 µM unless noted
Method: Growth inhibition of the SN12C human tumor cell line is measured as a screen for anti-cancer activity. Cells are grown in 96 well plates and exposed to the test compound for 48 hours. Compounds are tested at a single concentration, which is 10^-5 M for most compounds. The reported endpoint is percent growth (GI% or GIPRCNT), where numbers from 0 - 100% represent growth inhibition, and numbers from -100% - 0 represent cell death. For example, a value of 40 represents 60% growth inhibition. […]
The panel holds about 83,000 compounds, 20% with a hit somewhere; the sample as a whole holds those more often. Activity calls are given as the source filed them. Rule for the calls: active = growth percent below 10; inactive = the rest.
Outcomes: active, inactive

COMPOUND	DISCRETE LABEL
C=CCn1c(SCC(=O)Nc2ccc(C(=O)/C=C/c3cc(OC)c(OC)c(OC)c3)cc2)nnc1-c1ccc(OC)cc1	inactive
COc1cc(C(=O)NNC(=O)c2ccccc2O)cc(OC)c1OC	inactive
CC[C@H]1[C@@H]2C=C[C@@H]3[C@H]4C/C=C\C(=O)NCCC[C@@H]5NC(=O)/C(=C(O)/C=C/[C@@H]4C[C@@H]3[C@H]2C[C@H]1C)C5=O	active
CC(C)(C)NC(C1=CC(C)(C)c2ccccc2C1=O)c1ccccc1 (centres undefined)	active
Cc1cc(NCCN(C(C)C)C(C)C)nc(/N=C(\N)Nc2ccc(Cl)c(C(F)(F)F)c2)n1	active
CC1CCC(C(C)C)C(NN)C1 (centres undefined)	inactive
CC1=C2C(=C[C@@](C)(CO)[C@@H]2OC(=O)N(C)CCN(C)C(=O)OC(C)(C)C)C(=O)[C@](C)(O)C12CC2	inactive
C=C1C(=O)O[C@H]2[C@H]1CC/C(COC(=O)c1cc(OC)c(OC)c(OC)c1)=C\CC[C@@]1(C)O[C@@H]21	active
Nc1nc2ccc(CNc3ccc(C(=O)NC(CC(=O)O)C(=O)O)cc3)cc2c(=O)[nH]1 (centres undefined)	inactive
O=C(N/N=C/c1ccccc1O)c1ccccc1O	inactive
Nc1ccc(S(=O)(=O)Nc2ccnn2-c2ccccc2)cc1	inactive
O=C1CN(CCN2CC(=O)NC(=O)C2)CC(=O)N1	inactive
COc1ccc(-c2ccc(NC(=O)Nc3ccc(Cl)c(C(F)(F)F)c3)c(C)n2)cc1	inactive
Cc1ccc(-c2nc3c(N=Nc4ccc(S(N)(=O)=O)cc4)c(N)nn3c(N)c2C#N)cc1	inactive

Provenance of the data: PubChem BioAssay (NCI)
